TESTED_ON: T1, CrkII SH2 domain (CrkII^SH2, residues 6-120) (human, UniProt P46108-1 6-120, biotin (EZ-Link NHS-PEG4-Biotin, 1:1 molar ratio) where it was immobilised (a1))
T1 construct: human CrkII SH2 domain, UniProt P46108-1, residues 6-120; The His tag is TEV-cleavable and was cleaved 'when required'
TEST_DESCRIPTION: SPR; biotinylated adapter proteins captured with a biotin CAPture kit, pY peptides as analytes; Biacore 8K+, 20 °C, HBS-TP (20 mM HEPES pH 7.4, 150 mM NaCl, 1 mM TCEP, 0.005% Tween-P20) with 2% DMSO; 1 M NaCl regeneration; steady state, 1:1 model
TEST_PARAMETERS: both partners purified
Non-standard residues stand in square brackets, D forms with d. pY = N[C@@H](Cc1ccc(OP(=O)(O)O)cc1)C(=O)O
REPORTED_ENDPOINT: pKd
Value format note: pKd is -log10 of concentration (mol/L); just state the number.

[[record]]
binder = "Ac-T[pY]SNLGQIRAHLLPSK-NH2 (SMILES CC[C@H](C)[C@H](NC(=O)[C@H](CCC(N)=O)NC(=O)CNC(=O)[C@H](CC(C)C)NC(=O)[C@H](CC(N)=O)NC(=O)[C@H](CO)NC(=O)[C@H](Cc1ccc(OP(=O)(O)O)cc1)NC(=O)[C@@H](NC(C)=O)[C@@H](C)O)C(=O)N[C@@H](CCCNC(=N)N)C(=O)N[C@@H](C)C(=O)N[C@@H](Cc1c[nH]cn1)C(=O)N[C@@H](CC(C)C)C(=O)N[C@@H](CC(C)C)C(=O)N1CCC[C@H]1C(=O)N[C@@H](CO)C(=O)N[C@@H](CCCCN)C(N)=O, source: synthetic peptide, bought: Mimotopes (95% purity)) [PEAK3 23-38-pY24 peptide (Ac-T(pY)SNLGQIRAHLLPSK-NH2)]"
reported_endpoint = "pKd"
experimental_value = 5.28

[[record]]
binder = "Ac-T[pY]SNLGQSRAAMIPPK-NH2 (human PEAK1 residues 1106-1121; source: synthetic peptide, bought: Mimotopes (95% purity)) [PEAK1 1106-1121-pY1107 peptide (Ac-T(pY)SNLGQSRAAMIPPK-NH2)]"
reported_endpoint = "pKd"
experimental_value = 5.49


Consider the binder Ac-T[pY]SNLGQ-NH2 (also called consensus pY peptide; SH2-pY peptide; source: synthetic peptide, bought: Mimotopes (95% purity)) [PEAK SH2-pY consensus peptide (Ac-T(pY)SNLGQ-NH2)] and give its measured pKd. 5.06
